Sourced from PubChem BioAssay AID1411

Exercise: for every item that follows, state its recorded IC50.
- Assayed target: Signal transducer and activator of transcription 1-alpha/beta (Homo sapiens) (UniProt P42224)
- Sequence (P42224 whole entry, looked up): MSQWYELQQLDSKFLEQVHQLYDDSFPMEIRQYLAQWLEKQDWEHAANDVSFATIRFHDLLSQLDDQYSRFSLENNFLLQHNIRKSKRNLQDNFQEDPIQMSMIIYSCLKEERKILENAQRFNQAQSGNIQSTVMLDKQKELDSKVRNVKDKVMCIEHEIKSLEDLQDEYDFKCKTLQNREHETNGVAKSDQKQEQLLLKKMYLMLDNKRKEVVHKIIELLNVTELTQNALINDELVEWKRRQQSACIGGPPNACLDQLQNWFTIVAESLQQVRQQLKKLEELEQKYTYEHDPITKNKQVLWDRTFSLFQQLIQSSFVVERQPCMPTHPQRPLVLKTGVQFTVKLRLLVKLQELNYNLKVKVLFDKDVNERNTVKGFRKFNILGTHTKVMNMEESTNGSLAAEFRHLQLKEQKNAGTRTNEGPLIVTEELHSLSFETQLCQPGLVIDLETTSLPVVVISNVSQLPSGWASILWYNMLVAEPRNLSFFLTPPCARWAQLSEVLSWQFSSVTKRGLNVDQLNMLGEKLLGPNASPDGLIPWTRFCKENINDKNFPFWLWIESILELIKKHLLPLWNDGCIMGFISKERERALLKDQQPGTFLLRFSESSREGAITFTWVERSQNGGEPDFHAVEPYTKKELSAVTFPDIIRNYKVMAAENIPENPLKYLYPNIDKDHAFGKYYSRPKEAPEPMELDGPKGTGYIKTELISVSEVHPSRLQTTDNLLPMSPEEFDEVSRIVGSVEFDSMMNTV
- Protocol description: STAT1 reporter inhibitors, potency curves, dose response, counter-screen for STAT3 inhibitor project, cell-based, NIH 3T3, luciferase reporter (AID 1411)
- Assay conditions: NIH 3T3 fibroblasts, counterscreen
Activity calls are given as the source filed them. How the calls were made is not given here.

Would you please look over these solved cases?
# Compound, IC50
data = [
    ("CN(C)S(=O)(=O)Oc1cccc(C(=O)Nc2ccc(Cl)cc2)c1", "> 55.7 µM (inactive)"),
    ("O=C(Nc1cccc(Cl)c1)Nc1ccnc(-c2cccnc2)n1", "> 55.7 µM (inactive)"),
]

// input: 8 compounds below; output: IC50 for each
1. Cc1ccc(-n2nnnc2SCn2nnc3ccccc3c2=O)c(C)c1
2. Cn1c(=O)oc2cc(S(=O)(=O)N3CCCC(C(=O)N4CC=C(c5ccccc5)CC4)C3)ccc21 (stereo unspecified)
3. CC[n+]1ccccc1/C=C/c1ccc(N(C)C)cc1
4. O=C(Nc1ccn(Cc2ccccc2F)n1)c1ccc(COc2ccccc2Cl)cc1
5. COc1cc(OC)cc(C(=O)Nc2nnc(NC(=S)Nc3ccccc3)s2)c1
6. COc1ccc(NS(=O)(=O)c2ccc(NC(=O)c3ccc(N(C)S(C)(=O)=O)cc3)cc2)cc1
7. COc1ccc(C(=O)Nc2ccc3oc(Cc4ccc(Cl)cc4)nc3c2)cc1OC
8. Cn1c(CN2CCCCC2)nc2cc(NC(=O)c3cccc(Br)c3)ccc21

1. > 55.7 µM (inactive)
2. > 55.7 µM (inactive)
3. > 55.7 µM (inactive)
4. > 55.7 µM (inactive)
5. > 55.7 µM (inactive)
6. > 55.7 µM (inactive)
7. > 55.7 µM (inactive)
8. > 55.7 µM (inactive)

Consider the compound COc1ccc(C)cc1-n1nnnc1SCn1nnc2ccccc2c1=O and give its recorded IC50.
> 55.7 µM (inactive)
